Assay: Stability of K vitamins in cell culture media with no cells present
Type: physicochemical
Details: 1 μM of each vitamin, three growth media, over 48 hours
Readout kind: stability in growth media

CC(C)=CCC/C(C)=C/CC/C(C)=C/CC/C(C)=C/CC/C(C)=C/CC/C(C)=C/CC/C(C)=C/CC/C(C)=C/CC/C(C)=C/CC1=C(C)C(=O)c2ccccc2C1=O : fairly stable
CC(C)=CCC/C(C)=C/CC/C(C)=C/CC/C(C)=C/CC/C(C)=C/CC/C(C)=C/CC/C(C)=C/CC/C(C)=C/CC1=C(C)C(=O)c2ccccc2C1=O : fairly stable
CC1=C(C/C=C(\C)CCC[C@H](C)CCC[C@H](C)CCCC(C)C)C(=O)c2ccccc2C1=O [K1, vitamin K1, reference compound] : fairly stable
CC(C)=CCC/C(C)=C/CC/C(C)=C/CC/C(C)=C/CC/C(C)=C/CC/C(C)=C/CC/C(C)=C/CC1=C(C)C(=O)c2ccccc2C1=O : fairly stable

Measured values drawn from patent US20100048704A1 for this set.
